Items are presented alongside their recorded inhibition.
Target: Tyrosine-protein kinase Lyn (Homo sapiens);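 also: mean inhibition of the LYN A splice variant of the kinase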
Conditions: at 0.1 µM
Description: GSK_PKIS: LYN A (splice variant) mean inhibition at 0.1 uM [Nanosyn]

Worked set:
| MOLECULE | SUBJECT_OF_TEST | inhibition |
| --- | --- | --- |
| COc1cc(N2CCN(C(C)C)CC2)ccc1Nc1nc(Nc2ccc(F)cc2C(=O)NC[C@@H](O)CO)c2cc[nH]c2n1 | Tyrosine-protein kinase Lyn (Homo sapiens) | 4.36% |
| FC(F)(F)c1cccc(Nc2nccc(-c3cnn4nc(-c5ccccc5)ccc34)n2)c1 | Tyrosine-protein kinase Lyn (Homo sapiens) | 0.75% |
| CCc1nccc2c1nc(-c1nonc1N)n2CC | Tyrosine-protein kinase Lyn (Homo sapiens) | 3.82% |

In plain terms, Fc1ccc(-c2nc3n(c2-c2ccncc2)CCS3)cc1 has a documented inhibition of 3.56%

In plain terms, CS(=O)(=O)CCNCc1cc(-c2cc3c(Nc4ccc(OCc5cccc(F)c5)c(Cl)c4)ncnc3s2)cs1 has a documented inhibition of 5.45%

In plain terms, COc1cc(Nc2ncc3c(C)nc(-c4cccc(Oc5ccccc5)c4)n3n2)cc(OC)c1OC has a documented inhibition of 3.39%

In plain terms, COc1ccc(C2=C(N3CCc4ccccc43)C(=O)NC2=O)cc1 has a documented inhibition of 6.92%

In plain terms, O=C(Nc1n[nH]c2cc(-c3ccccc3)ccc12)C1CC1 has a documented inhibition of 5.94%

In plain terms, CN(c1ccc(NC(=O)Nc2c(Cl)cccc2Cl)cc1)c1ccnc(Nc2cccc(CS(C)(=O)=O)c2)n1 has a documented inhibition of 29.7%

In plain terms, NS(=O)(=O)c1ccc(N/N=C2\C(=O)Nc3ccc(-c4cnco4)cc32)cc1 has a documented inhibition of 3.33%

In plain terms, COc1ccc(-c2ccc3c(NC(=O)C4CC4)n[nH]c3n2)cc1 has a documented inhibition of 1.25%

----------
Biological target: Inhibitor of nuclear factor kappa-B kinase subunit epsilon (Homo sapiens);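 also: reported values are averaged percent inhibition figures against human IKKε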
Settings: at 1 µM
ENDPOINT_NAME: inhibition (%)
// return numeric value only (unit: %, not printed)

In plain terms, Fc1ccc(-c2nc3n(c2-c2ccncc2)CCS3)cc1 has a documented inhibition of 4.11

In plain terms, COc1cc2ncn(-c3cc(OCCc4ccccc4)c(C(N)=O)s3)c2cc1OC has a documented inhibition of 2.69

In plain terms, COc1ccc2cc(-c3c(-c4ccncc4)nc(-c4ccc([S+](C)[O-])cc4C)n3C)ccc2c1 (stereo not given) has a documented inhibition of -2.02

In plain terms, O=C(Nc1ccc(Oc2ccc3[nH]c(NC(=O)c4ccccc4)nc3c2)cc1)Nc1cc(C(F)(F)F)ccc1F has a documented inhibition of 3.04

In plain terms, CNC(=O)c1cncc(/C=C/c2c(C)cccc2C)c1 has a documented inhibition of 0.54

In plain terms, CCC(=O)Nc1ccc(C)c(-c2ccc(C(=O)NCC3CC3)cc2)c1 has a documented inhibition of 4.21

In plain terms, N#Cc1ccc(Oc2nccc(-c3c(-c4ccc(F)cc4)ncn3C3CCNCC3)n2)cc1 has a documented inhibition of 5.32

In plain terms, O=C1NC(=O)C(c2cccc(Cl)c2)=C1Nc1ccc(Cl)c(C(=O)O)c1 has a documented inhibition of 6.69

In plain terms, NC(=O)c1ccc(Oc2nccc(-c3c(-c4ccc(F)cc4)ncn3C3CCNCC3)n2)cc1 has a documented inhibition of 7.38

In plain terms, C[C@@H](Oc1cc(-n2cnc3ccc(OC4CCN(C)CC4)cc32)sc1C(N)=O)c1ccccc1Cl has a documented inhibition of 6.16
